Just for reference, paper PMC9120017 is where these values come from.

Target: mouse TMEM16A mutant S517A (Mus musculus, UniProt Q8BHY3, S517A)
Construct: expressed in transfected cells; host or cells: HEK293T
Sequence (Q8BHY3 1-960 S517A): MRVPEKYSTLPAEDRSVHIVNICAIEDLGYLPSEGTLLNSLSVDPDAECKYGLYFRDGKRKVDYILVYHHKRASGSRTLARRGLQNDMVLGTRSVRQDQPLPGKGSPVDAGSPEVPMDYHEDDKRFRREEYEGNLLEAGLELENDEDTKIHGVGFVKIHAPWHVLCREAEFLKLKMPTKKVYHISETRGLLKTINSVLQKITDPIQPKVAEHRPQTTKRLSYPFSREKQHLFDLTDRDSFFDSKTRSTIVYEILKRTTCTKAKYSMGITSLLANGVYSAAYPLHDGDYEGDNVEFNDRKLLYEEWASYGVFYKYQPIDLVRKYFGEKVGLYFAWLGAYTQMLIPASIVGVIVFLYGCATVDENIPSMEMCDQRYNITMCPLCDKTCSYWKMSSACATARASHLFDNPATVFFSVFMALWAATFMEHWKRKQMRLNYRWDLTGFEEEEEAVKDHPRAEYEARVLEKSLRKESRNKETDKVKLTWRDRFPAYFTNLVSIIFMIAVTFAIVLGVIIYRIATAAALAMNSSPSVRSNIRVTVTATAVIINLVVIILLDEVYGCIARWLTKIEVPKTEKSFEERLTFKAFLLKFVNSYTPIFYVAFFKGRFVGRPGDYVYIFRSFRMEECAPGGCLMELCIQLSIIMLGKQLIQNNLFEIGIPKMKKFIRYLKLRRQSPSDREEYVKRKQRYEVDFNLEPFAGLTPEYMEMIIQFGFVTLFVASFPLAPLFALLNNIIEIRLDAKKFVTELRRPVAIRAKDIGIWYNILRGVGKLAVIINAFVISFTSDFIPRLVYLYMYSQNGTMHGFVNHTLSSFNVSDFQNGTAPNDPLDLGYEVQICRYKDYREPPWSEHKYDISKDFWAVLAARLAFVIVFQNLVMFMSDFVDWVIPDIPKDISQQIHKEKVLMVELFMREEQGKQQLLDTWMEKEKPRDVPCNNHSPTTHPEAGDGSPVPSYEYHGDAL
Assay: Inside-out patch recording of 1PBC block, mutant S517A
Assay type: cell-based
Conditions: -20 mV; 2 µM Ca2+
Measure name: IC50 (µM)

INSERT INTO assay_data (mol_smiles, test_value) VALUES
  ('N#Cc1c(C(F)(F)F)cc(O)n2c1nc1ccccc12', 6.24);

###

biological target: mouse TMEM16A mutant P595A (Mus musculus, UniProt Q8BHY3, P595A); construct: expressed in transfected cells; host or cells: HEK293T; assay: Inside-out patch recording of 1PBC block, mutant P595A; type: cell-based; settings: P595A; V 120 mV
pIC50: −log10 of the molar value.
Measure name: pIC50

INSERT INTO results (mol_smiles, test_value) VALUES
  ('N#Cc1c(C(F)(F)F)cc(O)n2c1nc1ccccc12', 5.79);

###

Molecular target: mouse TMEM16A mutant R535A (Mus musculus, UniProt Q8BHY3, R535A)
Construct: expressed in transfected cells; host or cells: HEK293T
Sequence (Q8BHY3 1-960 R535A): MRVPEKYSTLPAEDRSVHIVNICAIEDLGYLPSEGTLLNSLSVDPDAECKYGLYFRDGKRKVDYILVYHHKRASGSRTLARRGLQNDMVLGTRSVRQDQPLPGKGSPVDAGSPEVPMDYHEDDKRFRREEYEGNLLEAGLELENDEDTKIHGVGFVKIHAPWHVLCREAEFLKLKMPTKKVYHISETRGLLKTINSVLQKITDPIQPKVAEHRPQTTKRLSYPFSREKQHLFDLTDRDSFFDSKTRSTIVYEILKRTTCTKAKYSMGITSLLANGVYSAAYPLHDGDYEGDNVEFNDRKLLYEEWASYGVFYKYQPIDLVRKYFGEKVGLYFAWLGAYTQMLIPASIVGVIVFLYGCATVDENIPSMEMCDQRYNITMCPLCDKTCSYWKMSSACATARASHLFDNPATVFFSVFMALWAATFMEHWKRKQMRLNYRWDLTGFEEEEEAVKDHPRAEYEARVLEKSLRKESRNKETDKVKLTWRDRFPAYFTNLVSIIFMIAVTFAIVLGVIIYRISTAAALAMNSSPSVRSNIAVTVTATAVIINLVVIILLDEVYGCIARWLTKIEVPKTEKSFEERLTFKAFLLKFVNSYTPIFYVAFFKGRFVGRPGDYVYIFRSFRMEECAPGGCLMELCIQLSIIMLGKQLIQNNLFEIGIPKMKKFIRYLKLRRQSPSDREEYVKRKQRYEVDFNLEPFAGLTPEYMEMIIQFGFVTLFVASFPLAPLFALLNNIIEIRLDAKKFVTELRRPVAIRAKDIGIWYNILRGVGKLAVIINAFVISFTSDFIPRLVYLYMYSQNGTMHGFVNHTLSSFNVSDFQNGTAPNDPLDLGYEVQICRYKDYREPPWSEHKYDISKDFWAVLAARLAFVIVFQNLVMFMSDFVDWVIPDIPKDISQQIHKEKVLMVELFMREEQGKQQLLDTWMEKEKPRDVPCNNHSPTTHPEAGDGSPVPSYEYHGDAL
Test: Inside-out patch recording of 1PBC block, mutant R535A
Type: cell-based
Settings: R535A; V 80 mV
Measure name: IC50 (µM)

INSERT INTO results (mol_smiles, test_value) VALUES
  ('N#Cc1c(C(F)(F)F)cc(O)n2c1nc1ccccc12', 6.02);
